# Test System: MAPK14 (human)
# Method Description: In vitro Inhibition of TNF-alpha Production in PBMC Cells

{"columns": ["Test Smiles", "Test System", "Unit", "IC50"],
 "data": [
  ["CC(=O)c1c(-c2ccc(F)cc2)c(-c2ccncc2)c(N2CCN(C(C)=O)CC2)n1C", "MAPK14 (human)", "nM", 43],
  ["COC(=O)c1c(-c2ccc(F)cc2)c(-c2ccncc2)c(NCCN(C)C)n1C", "MAPK14 (human)", "nM", 98],
  ["CC(=O)N1CCN(c2c(-c3ccncc3)c(-c3ccc(F)cc3)c(C#N)n2C)CC1", "MAPK14 (human)", "nM", 154],
  ["COC(=O)c1c(-c2ccc(F)cc2)c(-c2ccncc2)c(N2CCc3ccccc3C2)n1C", "MAPK14 (human)", "nM", 166],
  ["CCCNC(=O)c1c(-c2ccc(F)cc2)c(-c2ccncc2)c(N2CCNCC2)n1C", "MAPK14 (human)", "nM", 10000],
  ["COC(=O)c1c(-c2ccc(F)cc2)c(-c2ccncc2)c(NCCN2CCSCC2)n1C", "MAPK14 (human)", "nM", 69],
  ["O=C1CCCn2c(NCCN3CCOCC3)c(-c3ccncc3)c(-c3ccc(F)cc3)c21", "MAPK14 (human)", "nM", 2560],
  ["CCNC(=O)N1CCN(c2c(-c3ccncc3)c(-c3ccc(F)cc3)c(C(=O)OC)n2C)CC1", "MAPK14 (human)", "nM", 2920],
  ["Cn1cc(-c2ccncc2)c(-c2ccc(F)cc2)c1-c1cnco1", "MAPK14 (human)", "nM", 59]
]}

----------
We begin with a simple list: items and their reported IC50.
# Test System: MAPK14 (human)
# Method Description: In vitro Inhibition of TNF-alpha Production in PBMC Cells

{"columns": ["Compound", "IC50 (nM)"],
 "data": [
  ["O=C1c2c(-c3ccncc3)c(-c3ccc(F)cc3)cn2C(=O)N1Cc1ccccc1", 26],
  ["CC(=O)c1c(-c2ccc(F)cc2)c(-c2ccncc2)c(N2CCN(C)CC2)n1C", 370],
  ["Cn1cc(-c2ccncc2)c(-c2ccc(F)cc2)c1-c1nnco1", 18],
  ["CCOC(=O)c1c(-c2ccc(F)cc2)c(-c2ccncc2)c(CCCO)n1C", 186],
  ["COC(=O)c1c(-c2ccncc2)c(-c2ccc(F)cc2)cn1C", 55],
  ["COC(=O)C1CCn2c(NCCN3CCOCC3)c(-c3ccncc3)c(-c3ccc(F)cc3)c2C1=O (stereo unspecified)", 77],
  ["Cn1c(Br)c(-c2ccncc2)c(-c2ccc(F)cc2)c1C(=O)OC(C)(C)C", 1890],
  ["CCCn1c(NCCN2CCOCC2)c(-c2ccncc2)c(-c2ccc(F)cc2)c1C(=O)OC", 589],
  ["CN(Cc1ccccc1)Cc1[nH]cc(-c2ccc(F)cc2)c1-c1ccncc1", 91],
  ["CC(=O)c1c(-c2ccc(F)cc2)c(-c2ccncc2)cn1C", 597],
  ["Cn1c(Br)c(-c2ccncc2)c(-c2ccc(F)cc2)c1C#N", 625],
  ["COC(=O)c1c(-c2ccc(F)cc2)c(-c2ccncc2)c(C#CCN2CCN(C)CC2)n1C", 7.7],
  ["Cn1c(C(=O)C2CC2)c(-c2ccc(F)cc2)c(-c2ccncc2)c1N1CCN(C(=O)C2CC2)CC1", 36],
  ["COC(=O)c1c(-c2ccc(F)cc2)c(-c2ccncc2)c(N2CCCC2)n1C", 17],
  ["CN(CCO)Cc1[nH]cc(-c2ccc(F)cc2)c1-c1ccncc1", 3],
  ["CCCc1c(-c2ccnc(SC)n2)c(-c2ccc(F)cc2)cn1CCCN(C)C", 148],
  ["CCOC(=O)c1c(-c2ccc(F)cc2)c(-c2ccncc2)c(Br)n1C", 86],
  ["C[C@H](Nc1nccc(-c2c[nH]cc2-c2ccc(F)cc2)n1)c1ccccc1", 3],
  ["Cn1cc(-c2ccncc2)c(-c2ccc(F)cc2)c1C(=O)NCC(=O)c1ccccc1", 157],
  ["CCCCNCc1c(-c2ccncc2)c(-c2ccc(F)cc2)cn1C", 1080],
  ["COC(=O)c1c(-c2ccc(F)cc2)c(-c2ccncc2)c(C2=CCNCC2)n1C", 72]
]}
